From: ChEMBL document CHEMBL1268954

Assay: Oral bioavailability in dog
Format: ADME, organism-based, Canis lupus familiaris
Settings: in vivo
reportedMetric: bioavailability

Look at this compound and give its reported bioavailability. COC[C@H](NC(=O)c1cnc(C)s1)C(=O)N[C@@H](COC)C(=O)N[C@@H](Cc1ccccc1)C(=O)[C@]1(C)CO1 39%

* * *

Assay: Inhibition of FTase
reportedMetric: IC50 (nM)
Kindly provide the numeric value in nM only, without the unit symbol.

Please report the recorded IC50 for Cn1cncc1[C@@](N)(c1ccc(Cl)cc1)c1ccc2c(c1)c(-c1cccc(Cl)c1)cc(=O)n2C . 0.6

* * *

Experiment: Oral bioavailability in rat
Format: ADME, organism-based
Conditions: in vivo
reportedMetric: bioavailability (%)
The answer is to be given in %; state only the numeric part.

Return reported bioavailability; argument: COC[C@H](NC(=O)c1cnc(C)s1)C(=O)N[C@@H](COC)C(=O)N[C@@H](Cc1ccccc1)C(=O)[C@]1(C)CO1 21

* * *

Experiment: Oral bioavailability in mouse
Type: ADME, organism-based
Settings: in vivo
reportedMetric: bioavailability

Quick one: bioavailability for COC[C@H](NC(=O)c1cnc(C)s1)C(=O)N[C@@H](COC)C(=O)N[C@@H](Cc1ccccc1)C(=O)[C@]1(C)CO1 ? 17%

* * *

Test: Inhibition of FTase
reportedMetric: pEC50
Lab note — pEC50 values are minus log10 of concentrations in M.

State the recorded pEC50 for this entry: Cn1cncc1[C@](N)(c1ccc(Cl)cc1)c1ccc2c(c1)c(-c1cccc(Cl)c1)cc(=O)n2C [(S)-TIPIFARNIB] 8.74
